Exercise: for every item that follows, state its recorded IC50.
# System: A 172;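 note: growth inhibition of A172 cells, measured with a cell viability readout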
# test.details: cells
# Assay type: functional, cell-based, Homo sapiens
# experimental.conditions: Homo sapiens, A 172
# Description: SANGER: Inhibition of human A172 cell growth in a cell viability assay.

Solved cases below.
compound | IC50
O=C1N=C(NCc2cccs2)S/C1=C\c1ccc2ncccc2c1 | > 5000 nM
Nc1ccn([C@@H]2O[C@H](CO)[C@@H](O)[C@@H]2O)c(=O)n1 [CYTARABINE] | > 2000 nM
C=CCc1cccc(/C=N/NC(=O)CN2CCN(Cc3ccccc3)CC2)c1O [PAC-1] | > 2560 nM

API: the following record is the query input.
input: # return recorded IC50 for input CN(Cc1cnc2nc(N)nc(N)c2n1)c1ccc(C(=O)N[C@@H](CCC(=O)O)C(=O)O)cc1 [METHOTREXATE]
output: > 200 nM
